biological target: RXFP4 receptor (UniProt Q8TDU9 1-374, limits assumed); experiment: cell-based or functional assay
Sequence (Q8TDU9 whole entry): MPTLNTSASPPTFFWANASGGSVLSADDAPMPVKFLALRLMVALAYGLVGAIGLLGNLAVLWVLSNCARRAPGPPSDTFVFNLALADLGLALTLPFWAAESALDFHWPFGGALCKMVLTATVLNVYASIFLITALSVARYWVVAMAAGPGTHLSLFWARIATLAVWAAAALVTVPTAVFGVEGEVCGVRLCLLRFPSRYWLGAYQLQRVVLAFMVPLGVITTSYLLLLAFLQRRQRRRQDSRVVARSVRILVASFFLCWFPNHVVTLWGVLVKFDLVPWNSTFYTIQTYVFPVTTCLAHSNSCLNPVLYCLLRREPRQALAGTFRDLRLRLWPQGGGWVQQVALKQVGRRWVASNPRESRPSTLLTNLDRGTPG
No end group written: not given here.
Below: a set of entries, each annotated with reported pEC50 (M), activation of RXFP4.

analogue 19 (Synthetic) chain 1: CKWGASKSEISSLC chain 2: CGREFIRAVIFTCGGSRW :: 8.46 M (as -log10)

Need pEC50 (M), activation of RXFP4 of human INSL5 (ligand, mature; Native receptor ligand used as comparator at RXFP4; also called hINSL5; native INSL5) chain 1: QDLQTLCCTDGCSMTDLSALC chain 2: KESVRLCGLEYIRTVIYICASSRW , thanks.
8.51 M (as -log10)

Requested field: pEC50 (M), activation of RXFP4. Item: analogue 15 (disulfide (positions not given here), Synthetic; two inter-chain disulphides, no intra-A-chain disulphide; also called [R3A(11-24,C15→A)B]; RXFP3-selective agonist, analogue 2) chain 1: CKWGASKSEISSLC chain 2: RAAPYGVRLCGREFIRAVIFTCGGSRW
7.7 M (as -log10)
